Each entry below lists one item and its recorded AC50 value.
# System: HEK293
# assay.remarks: EBV LMP1 TES2 canonical NF-kB signalling blockers – cell-based, HEK293, luciferase, cherry-pick, dose response (AID 588343)
# Assay type: functional
# condition.details: Homo sapiens
Calls of active or inactive are those of the source.
parameter: AC50

In [3]: df
Out[3]:
                                   compound            result
0  CCOC(=O)c1c(C)[nH]c(C(=O)N/N=C\c2ccccc2O)c1C  4.91 µM (active)
1       Cc1csc(NC(=O)c2ccc(N3CCCC3=O)cc2)n1  1.52 µM (active)
2  Cc1cc(O)nc(N=N/C(=N/Nc2ccccc2C)c2ccccc2)n1  4.66 µM (active)
3  COc1ccc(C(=O)NC2CCCc3c2cnn3-c2cccc(C)c2C)c(OC)n1 (centres undefined)  17.5 µM (active)

====

# system.tested: Ubiquitin-conjugating enzyme E2 N (Homo sapiens);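 also: Dose-response confirmation in a TR-FRET assay detecting UBC13-driven polyubiquitin chain formation, inhibition measured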
# Sequence (P61088 whole entry): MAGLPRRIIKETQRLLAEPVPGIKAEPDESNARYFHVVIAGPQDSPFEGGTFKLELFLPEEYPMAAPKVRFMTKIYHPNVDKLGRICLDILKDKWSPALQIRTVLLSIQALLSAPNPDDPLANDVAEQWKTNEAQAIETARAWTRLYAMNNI
# Format: functional
Structures can show the parent of a compound that is named as a salt. Activity calls are given as the source filed them.
Outcome codes: t for active, f for inactive

In [3]: df
Out[3]:
                                   compound  assigned_label
0  CC1CCN(c2c(NCc3ccc(C(=O)N4CCN(C5CCCCC5)CC4)cc3)c(=O)c2=O)CC1               f
1  CNCCC(Oc1ccc(C(F)(F)F)cc1)c1ccccc1 (stereo not given) [FLUOXETINE HYDROCHLORIDE]               f
2  Cc1nc(N)c2c(Cc3cccc4ccccc34)nn(C(C)(C)C)c2n1               f
3  CCC[C@@H](CN1CCC[C@H]1CN1C(N)=NC[C@H]1CC(C)C)N1C[C@@H](Cc2ccccc2)N(CCCC2CCCC2)C1=N               f
4  Clc1ccc(C(c2ccc(Cl)cc2)n2cc[n+](CC(OCc3ccc(Cl)cc3Cl)c3ccc(Cl)cc3Cl)c2)cc1 (stereo not given) [CALMIDAZOLIUM CHLORIDE]               t

====

# system.tested: Luciferin 4-monooxygenase (Photinus pyralis)
# Sequence (P08659 whole entry): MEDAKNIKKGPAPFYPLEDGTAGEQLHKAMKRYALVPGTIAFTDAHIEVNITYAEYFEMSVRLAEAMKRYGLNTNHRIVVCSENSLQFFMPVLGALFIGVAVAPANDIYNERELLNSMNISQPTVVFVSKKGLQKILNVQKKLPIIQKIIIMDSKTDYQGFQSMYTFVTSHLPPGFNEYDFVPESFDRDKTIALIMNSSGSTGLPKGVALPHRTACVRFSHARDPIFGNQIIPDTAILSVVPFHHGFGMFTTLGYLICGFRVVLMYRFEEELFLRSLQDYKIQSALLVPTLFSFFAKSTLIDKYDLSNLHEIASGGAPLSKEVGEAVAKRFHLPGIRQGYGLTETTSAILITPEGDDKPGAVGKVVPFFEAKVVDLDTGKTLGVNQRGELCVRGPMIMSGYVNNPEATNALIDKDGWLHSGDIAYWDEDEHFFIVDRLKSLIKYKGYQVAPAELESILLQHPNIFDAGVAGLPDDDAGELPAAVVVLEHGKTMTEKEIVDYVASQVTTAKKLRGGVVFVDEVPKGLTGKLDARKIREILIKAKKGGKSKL
# assay.remarks: inhibition of purified Photinus pyralis luciferase – biochemical, luminescence, dose response (AID 1891)
Activity calls are given as the source filed them.
Listed molecules paired with reported EC50
parameter: EC50

                                   molecule  parameter                 result
0  COc1cccc(C(=O)NCc2nnc(SCC(=O)Nc3nccs3)n2-c2ccccc2)c1       EC50  > 112 µM (not active)
1  O=C(c1cc2cc(F)ccc2[nH]1)N1CCN(Cc2ccc3c(c2)OCO3)CC1       EC50  > 112 µM (not active)
2  Cc1cccc(OCC(=O)N2CCN(C(=O)c3cccs3)CC2)c1       EC50  > 112 µM (not active)
3          COc1cccc(/C=N/NC(=O)c2ccoc2C)c1O       EC50       4.56 µM (active)
4   CC(=O)c1c(S)nc(-c2ccccc2)nc1N1CCN(C)CC1       EC50  > 112 µM (not active)
5                 O=C(NCCCN1CCOCC1)c1ccccc1       EC50  > 112 µM (not active)
6     CN(CCO)c1ccc(/C=N/Nc2nncc3ccccc23)cc1       EC50       0.67 µM (active)
7  CN1CCCC(OC(=O)c2cc(Br)ccc2Cl)C1 (centres undefined)       EC50  > 112 µM (not active)
8           COc1cccc(-c2nc(-c3ccccn3)no2)c1       EC50       4.73 µM (active)
